Molecular target: CaAbp1-D1
Experiment: SPOT peptide array binding signal intensity (averaged, normalized) (arbitrary units (background-subtracted, floor 0; scale differs between SH3 domains)); higher = stronger binding of the SH3 domain to the peptide
Kindly supply the reported SPOT peptide array binding signal intensity values for the records listed here.
Give bare numbers.

Below is a list of binders. For each, state its recorded SPOT peptide array binding signal intensity.
1. PLRRTVMSLPGNHDI
2. FSRRQSMDIPSKNRN
3. RFKRHRLEFPFNESE
4. DRIRMFIRFPKFLLE
5. LYEAMPPTLPHRDWK

1. 776
2. 266
3. 759
4. 470
5. 8

Provide SPOT peptide array binding signal intensity for all items below, preserving their order.
1. TTAPALPSLPPPPLL
2. YLTRPLPSTPNEDSR
3. QQNRPLPQLPNRNNR
4. RRARRQMGIPTISQV
5. PSTMDFPKLPSFQNS
6. ALKQKKIPPPFKPHL

1. 5
2. 11
3. 32
4. 514
5. 0.5
6. 938

Give one value of SPOT peptide array binding signal intensity per listed binder.
1. PHNPSPFFPPPDFND
2. GERSRPLVISILSSA
3. ANNQGPPNLPARDKS
4. STKKPRPPVKSKPKH
5. KRKRRLPVSEDTNTK

1: 2; 2: 43; 3: 8; 4: 1410; 5: 514

meta.source: the supplement of paper PMC4466140
